B1: PSD2 (parent)
chain: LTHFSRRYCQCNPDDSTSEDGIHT

Variants of: B1
Assay: protein stability index of a GFP-peptide fusion (GPS, HEK-293T) (PSI 1-6); higher = more stable;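 further: lentivirally expressed fusions sorted by FACS into six bins by GFP to DsRed ratio, PSI derived from sequencing read proportions per bin multiplied by bin number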
Settings: c terminus: a fixed tail appended
Tag: Criterion met if measured protein stability index is not below 2, Criterion not met if it is.

Evaluate C9P : protein stability index at minimum 2?
Criterion met

Evaluate T17V : protein stability index at minimum 2?
Criterion met

Evaluate E19Y : protein stability index at minimum 2?
Criterion not met

Evaluate D15N : protein stability index at minimum 2?
Criterion met

Evaluate S18V : protein stability index at minimum 2?
Criterion met
